- assay-system: GPR68 (Homo sapiens)
- Sequence (Q15743 whole entry): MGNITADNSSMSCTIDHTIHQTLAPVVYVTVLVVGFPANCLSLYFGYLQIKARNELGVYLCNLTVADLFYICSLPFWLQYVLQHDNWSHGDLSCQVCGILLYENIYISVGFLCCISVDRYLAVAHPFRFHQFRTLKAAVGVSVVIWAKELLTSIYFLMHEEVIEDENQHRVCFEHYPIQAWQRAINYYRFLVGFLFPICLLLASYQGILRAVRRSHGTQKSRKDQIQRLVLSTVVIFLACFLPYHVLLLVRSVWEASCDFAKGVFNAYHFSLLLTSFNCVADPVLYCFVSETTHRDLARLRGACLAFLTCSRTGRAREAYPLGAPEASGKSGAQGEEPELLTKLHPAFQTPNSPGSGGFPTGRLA
- assay-summary: Split-luciferase
- Assay type: cell-based
- test-settings: cAMP production, proton as agonist
quantity-name: allosteric effect (qualitative comparison)

> print(dat)
                             smiles.data       assay.result
1   Nc1nc(NCCCc2ccccc2)nc(-c2ccccc2CO)n1  reduced allostery
2  Nc1nc(NCCCCc2ccccc2)nc(-c2ccccc2CO)n1  reduced allostery

The reported numbers originate from paper PMC4796946.
